# protocol_notes: soluble fraction after stress (log2 fold change); higher = more stays soluble; pooled small domains, quantitative proteomics
# condition_details: stress: pH 4
Binning rule for recorded soluble fraction (log2): bottom bin: < -0.3; middle bin: ≥ -0.3 and < 0.07; top bin: ≥ 0.07

Some entries whose results are on file:
macromolecule_sequence: HMEARYQLREVSLDGLRSGMILNADVLSTDGVLMARKGLEVSGLLRSRLEAFAKMERIEPTFKVLVPIAPP
answer_label: top bin
--
macromolecule_sequence: HMVLMPIDALRGSSSSSEMRIAAVKFSPSKGWYFSLQERSDEGSSYYEQKVASDGSVSERVKVR
answer_label: bottom bin
--
macromolecule_sequence: HMERLLVSKINGMITEAKVSVEDVVKVVASRGHYPEVKSIDEYPDDFLSRWVVPNFKKIVEMINANKEA
answer_label: top bin
--
macromolecule_sequence: HMNNLKTKELSKIGYTNDKARSLVISIIPKHFKYHSKSEIIELLTNIKNKPEDYVSDEILGKIAETFMEKI
answer_label: bottom bin
--
macromolecule_sequence: HMVSSEGLASGIERMLVEFGLETDKGRRFAMWSLLYMLGSAPDLDVAFKDPRDREAARTFMDLLDQANA
answer_label: bottom bin
--
macromolecule_sequence: HMITNESEIERIVEAIISKNPESIAQYRSGITKVLGFLVGQVMKETKGRANPALVNRIIISKME
answer_label: top bin

Which class does HMNPETIHNDYKAFIKFAFSGLSYYSKVWNQNREMITPGLLETLWQKYRHLSIGEIETILEKIIKEG fall in?
bottom bin

Which class does HMITMWYYKKDGNIIGPASARKIASMRELGIITDSTPVSRKRNAKNWETFGGLSEKINLESSQWD fall in?
top bin

====

Can you tell me soluble fraction (log2) for the items I'm about to list?
# protocol_notes: soluble fraction after stress (log2 fold change); higher = more stays soluble; pooled small domains, quantitative proteomics
# condition_details: stress: pH 4
Give bare numbers.

Worked set:
macromolecule_sequence: HMFKMRVNGKEVIGMAITAKPQANPIDVADEIKKFVIDANTKLPSTMKLEVLYDATGIFRASISEVIS
attribute_measured: soluble fraction (log2)
endpoint_value: -0.86

macromolecule_sequence: HMSELPLTQKVAIVMVALGEEASGEVMKHLSDYEIEEITQAIAGLKNISVELMDQILEEYEQHLIAG
attribute_measured: soluble fraction (log2)
endpoint_value: -0.536

macromolecule_sequence: HMKLTKPKLIQLIHIAKSKLNMDELSYRVLLDNLTGKTSTTKMTVGELLKVYESMKDKGFKPQV
attribute_measured: soluble fraction (log2)
endpoint_value: 0.104

Now consider the entry below.
Endpoint output: soluble fraction (log2) of HMTSESWAEKSRSLAAAGLIVMGRDAQLKIEGLTNLDPLIEAATASSTRLLTGQTIDELLTIVP . Value?
-0.627

====

Can you tell me soluble fraction (log2) for the items I'm about to list?
# protocol_notes: soluble fraction after stress (log2 fold change); higher = more stays soluble; pooled small domains, quantitative proteomics
# condition_details: stress: pH 4
Numbers only.

macromolecule_sequence: HMTWDSFIGYTVTDVQKGYLGEITDVDETTINVLLRVDHKGEELLIPAVEELITEADHEARSLTVSLPEGL
endpoint_value: -2.11
//
macromolecule_sequence: HMRVKLVKKSILASGGENIRVDKFLSNHILTMTRTQIKKLFLDGLVQVNKSFVKPGSILKGNEIITFSIPE
endpoint_value: -0.412

Lab note: each sequence below needs its soluble fraction (log2) filled in.
1. HMTKKEFLDILTESLAGNVPASEIEENIRYYKDYIENGEESEEKALEQLGDPHLIARTIIDSFIA
2. HMEEPEELYRVKILIYNLLVRNGPGILYTRLRRADYPGEYGIYEEKNGYGKISATLSEWISLNTEYVQRLD
3. HMNGKWKLRIIKELLHSNIRFGQILKNIPDISPKVLSQQLKEMEEDGIIERIVISEMPPNVEYVLTDMGE
4. HMEPGEVQVDGLRFIAQPQERNDFEVALEQFRAGNFAAARKSFAAFINTYKQSGYLPSARFW
5. HMEDKKQVLYELITDKSYRPLRFKELAVLLMVPKALRGELKQTLDELIKEGKITVDSSSRYRAA

-1.46
-0.378
-0.458
-0.152
0.276

====

# protocol_notes: soluble fraction after stress (log2 fold change); higher = more stays soluble; pooled small domains, quantitative proteomics
# condition_details: stress: pH 4
Lab note: anything with soluble fraction (log2) at or over 0.04 counts as condition met; the rest go in condition not met.

macromolecule_sequence: HMSLIDYLNELMNEKNITVAQVAKNSGIGEYVYKIFNGERNAKRDTLVAISFGMHLNFEETQLLLRIA
answer_label: condition not met
//
macromolecule_sequence: HMESVDRIYERVRRYADDVGTAKIPMKELDDDGPLGTAVSRIRERRKRGELTEEWEARFETLPGWTWAA
answer_label: condition not met
//
macromolecule_sequence: HMSLPAYIKISEVIARRINAGQILAGDRLPNERTMAVEFGVAVGTLRKALYHLQVRGLVTRKHGSGNYINK
answer_label: condition met
//
macromolecule_sequence: HMNRIARRELMEQLFADNKITTQEQLQQLLRAEGVEVTQATISRDMRILNIVKVSDQNGNTYYKQMK
answer_label: condition met

Has HMILEEIIGKNIARYREAAGLTQATLAEKIGISTAFVSRVERGQKKMKVETLYATAKVLNVSVDALLS a recorded soluble fraction (log2) greater than or equal to 0.04?
condition met

Has HMLTYPEHVRLRMIELRKTRSLSQSEFGTYLGLSYQTISSLELGRHEWSLAHIQTALLRFELPPNYF a recorded soluble fraction (log2) greater than or equal to 0.04?
condition not met

Has HMAIPTTDSDKATDAQIKQIKLLGDIHPNLKLDAWLERNHVTWETLTREQAGNMMKAIKNKYGD a recorded soluble fraction (log2) greater than or equal to 0.04?
condition met

====

# protocol_notes: soluble fraction after stress (log2 fold change); higher = more stays soluble; pooled small domains, quantitative proteomics
# condition_details: stress: pH 4
Lab note: anything with soluble fraction (log2) at or over -0.2 counts as true (1); the rest go in false (0).

Some entries whose results are on file:
macromolecule_sequence: HMAEPLYKQVKNKIIQNLTSDEWKPGSVIPSETKLAETYGVGVSTIRMAIGELVAARILIRRQGKGTFVSS
answer_label: true (1)
//
macromolecule_sequence: HMSMFTPAQVAQTLTVPPSTLRRWAKRFAPFLSPQSGKKRTYTVADLDTFQRIKELSAQGYTFAQIDQAL
answer_label: true (1)
//
macromolecule_sequence: HMNASTVTLENFEGAKYDDVYGKYDYQFSVTYEQTDKYESGVIISQKPEAGTKIIKGSQVSLVVAT
answer_label: true (1)
//
macromolecule_sequence: HMKKKLPRYLQEQKYGNGMVFYRYNPTARYIDEGIVTRTNLGSDLSIAKKKANEFNKLIDAFLQQQSE
answer_label: true (1)

Has HMKTPIEFGSVYNDPVRYVIGMSIKSAESINQAIYDMMKIFGDENNMNKFDSLPDEQAVLDMVNSF a recorded soluble fraction (log2) greater than or equal to -0.2?
false (0)

Has HMIESFQNGLVEHDQFTRPNPWVTPNFSKIEVPSILLSGKHADIDLWKHQNSIENTKKNRPDLFKNYLKKN a recorded soluble fraction (log2) greater than or equal to -0.2?
false (0)

Has HMKQQFTREQIIELMYKAYKKHKKKLNRVEIKKEKALPSYVTIGRYLNETSIKKIWEIVLSEKE a recorded soluble fraction (log2) greater than or equal to -0.2?
false (0)

Has HMTEEVIIQNYIGKNFNDVRDELEAKGITVDEPNMKYSDEFKENTIMAQSIKPGQPLKPGGFNSIKFDVS a recorded soluble fraction (log2) greater than or equal to -0.2?
true (1)

====

# protocol_notes: soluble fraction after stress (log2 fold change); higher = more stays soluble; pooled small domains, quantitative proteomics
# condition_details: stress: pH 4
attribute_measured: soluble fraction (log2)
Give bare numbers.

macromolecule_sequence: HMSTRLIGEIGVVTKDLGAGLKENGSIQIGREEWPAETKDMEHIPMGTRVKVIHIEGTRLVVEA
endpoint_value: -0.266
--
macromolecule_sequence: HMISKRFQVDEENSNNRVDIFLANNLDSISRGIVQQLILDGKVLVNGETVKRNHLLKTNDEVDISFEI
endpoint_value: 0.0466
--
macromolecule_sequence: HMKLARGEFEIMAKFIKEISGISLEQNKTYLIESRLSDLAESEGVKTFSDFFFKAKFNKILKEKIIDAI
endpoint_value: -0.957

Lab note: each sequence below needs its soluble fraction (log2) filled in.
1. HMGVMTGAEFVGNTVASVERNLIIDTLKHTMGNRTTAANILGISIRTLRNKLKQYQNEGFDIPE
2. HMEREQNIEHGRAIVERELKRLGLSDVYTIADIATALRHDDVDQFLAKIGFGDIQSTQIGGAIAALQQR
3. HMRITTKNYFKAISEVGFENLPEVLKKSHLVIEEKTNKGNDWGIYENDAEAKKVFDLAFDKLEEFIDRKED
4. HMTTKYMVLVNWVKEKVRTNELKTGEKLYSEHEFSRMFHMSRQTVRHGISILERENIVERRQGSGTFIKDA
5. HMENQFNDWSLTPSEKEVALFMLKGLSTQEIAAARNTKEKTVRQQASAVYAKSQLDGRYALAAWFFEDI

1. 0.185
2. -0.328
3. -0.203
4. -0.223
5. -1.04
